List of TGI values.
- Tested on: NCI-H460 lung
- Assay text: NCI tumour cell line growth inhibition, 48 h

Molecule	TGI
COC(=O)c1c(O)ccc2c1c1c(n2Cc2ccccc2OC)C(=O)c2ccccc2C1	> 100 µM
O=S(=O)(O)c1cc(Nc2ccnc3ccccc23)c2c(S(=O)(=O)O)cc(S(=O)(=O)O)cc2c1	> 100 µM
COc1ccc2nc(NCN3C(=O)c4ccccc4C3=O)sc2c1	> 100 µM
O=C(O)C1C(=O)Oc2c(cccc2[N+](=O)[O-])C1O (centres undefined)	> 100 µM
N#Cc1ccc(C2C3=C(CCCC3=O)OC3=C2C(=O)c2ccccc2C3=O)cc1 (centres undefined)	13.3 µM
NC(CC(=O)Nc1ccc(Cl)cc1)=Nc1ccccc1	> 100 µM
CCOc1ccc2nc(-c3cccc(OCC(=O)NC(C)C)c3)nc(Nc3ccc(-c4cn[nH]c4)cc3)c2c1	1.66 µM
NC(=O)C[C@H](NC(=O)C1(NC(=O)[C@H](Cc2ccc(CP(=O)(O)O)cc2)NC(=O)C(=O)O)CCCCC1)C(=O)NCCCc1cccc2ccccc12	> 10 µM

Reported TGI, molecule CCCCCC(O)(CCCCC)CCCCCCCCC1=C(O)c2ccccc2C(=O)C1=O : ____
17.7 µM

What about this molecule? Cc1cc2c(cc1-c1cc3c(cc1C)C(C(C)C)=C(O)C(=O)/C3=C\Nc1c(C)n(C)n(-c3ccccc3)c1=O)/C(=C/Nc1c(C)n(C)n(-c3ccccc3)c1=O)C(=O)C(O)=C2C(C)C
> 100 µM

What about this molecule? CCNc1cc2c3c(c1)CCCN3CCC2
29.8 µM

What about this molecule? c1ccc(Nn2c(CCCCCCCCc3nnc(COc4ccccc4)n3Nc3ccccc3)nnc2COc2ccccc2)cc1
> 300 µM

What about this molecule? COc1ccc(/C(Cl)=C(\C=O)c2ccccc2)cc1OC
> 100 µM

What about this molecule? CSc1nc(SC)c2c(C(N)=S)[nH]nc2n1
64.8 µM

What about this molecule? O=CC(Br)C(Br)c1ccccc1 (centres undefined)
31.2 µM
